# Experiment description: Stability in human liver microsomes assessed as parent compound remaining at 1 uM incubated for 10 mins
# Format: ADME, Microsome
# Assay conditions: read-out: Stability
Property label: remaining at 10 min, 1 µM (%)
Hi! Could you send only the number? It should be in %, unit omitted.

[ask] For the molecule shown here, Cc1c(-c2ccc(C(F)(F)F)cc2Cl)ccc2nn([C@@H](CC(C)C)c3ccc(C(=O)NCCC(=O)O)cc3)cc12 , give the reported remaining at 10 min, 1 µM.
[reply] 118

[ask] State the recorded remaining at 10 min, 1 µM for this entry: Cc1c(-c2ccc(C(F)(F)F)cc2Cl)ccc2c1cnn2[C@@H](CC(C)C)c1ccc(C(=O)NCCC(=O)O)cc1
[reply] 89

[ask] Using the record for COc1c(-c2ccc(C(F)(F)F)cc2C)ccc2c1cnn2[C@@H](CC(C)C)c1ccc(C(=O)NCCC(=O)O)cc1 , report its remaining at 10 min, 1 µM.
[reply] 95

[ask] # get_value(readout='remaining at 10 min, 1 µM', item= COc1c(-c2ccc(C(F)(F)F)cc2Cl)ccc2c1cnn2[C@@H](CC(C)C)c1ccc(C(=O)NCCC(=O)O)cc1 )
[reply] 93

Origin of values: ChEMBL document CHEMBL4396971
